System: Escherichia coli
Assay: Broth microdilution MIC (Example 12)
Conditions: Escherichia coli CDC 451, KPC
Quantity measured: MIC (µg/mL)
Kindly provide the numeric value in µg/mL only, without the unit symbol.

Example compounds with recorded MIC:
Lab note: `NCC[C@H](O)C(=O)N[C@@H]1C[C@H](N)[C@@H](O[C@H]2O[C@H](CN)[C@@H](O)[C@H](O)[C@H]2O)[C@H](O)[C@H]1O[C@H]1O[C@H](CO)[C@@H](O)[C@H](N)[C@H]1O` gave MIC of 4

The compound identified as `C[C@@H](O)[C@H]1C(=O)N2C(C(=O)O)=C(S[C@@H]3CN[C@H](C(=O)N(C)C)C3)[C@H](C)[C@H]12` registered its MIC at 1

// next entry
// `CC(C)(O/N=C(\C(=O)N[C@@H]1C(=O)N2C(C(=O)[O-])=C(C[n+]3ccccc3)CS[C@H]12)c1csc(N)n1)C(=O)O` : MIC value = 64

* * *

Tested on: Klebsiella pneumoniae
Assay: Broth microdilution MIC (Example 12)
Details: Klebsiella pneumoniae CDC 138, ESBL/NDM
Each item that follows carries a reported MIC.

Per the records, this compound ( `NCC[C@H](O)C(=O)N[C@@H]1C[C@H](N)[C@@H](O[C@H]2O[C@H](CN)[C@@H](O)[C@H](O)[C@H]2O)[C@H](O)[C@H]1O[C@H]1O[C@H](CO)[C@@H](O)[C@H](N)[C@H]1O` ) has MIC equal to >64 µg/mL

Consider `CC(C)(O/N=C(\C(=O)N[C@@H]1C(=O)N2C(C(=O)[O-])=C(C[n+]3ccccc3)CS[C@H]12)c1csc(N)n1)C(=O)O` . Its measured MIC is >64 µg/mL

For `C[C@H]1COc2c(N3CCN(C)CC3)c(F)cc3c(=O)c(C(=O)O)cn1c23` the compound record lists MIC as >8 µg/mL

Further cases:
// sample `C[C@@H](O)[C@H]1C(=O)N2C(C(=O)O)=C(S[C@@H]3CN[C@H](C(=O)N(C)C)C3)[C@H](C)[C@H]12` , its MIC was >8 µg/mL

* * *

In this section, each of the compounds is paired with its reported MIC 24 hr.
Tested on: E. coli ATCC 25922
Experiment: Broth microdilution MIC, QC organism (Example 13, Table 110)
Format: cell-based, Escherichia coli
Marks after values point to notes of the source that are not given here. *1 amine or outer side, *2 acyl side, *3 side chain or, on linkers, in order; H or OH if unused. Where a SMILES comes first, the peptide text is derived from it. Bridges are numbered along the chain shown (N, C = ends). [ ]: non-standard residue; d: D form. The star is where a group is joined. hTyr(3S-OH,4S-OH,3'-OSO3H) = N[C@H](C(=O)O)[C@H](O)[C@@H](O)c1ccc(O)c(OS(=O)(=O)O)c1; Orn(4R-OH,5R-OH) = O=C([C@H](C[C@@H](O)[C@@H](O)N[*:3])N[*:1])[*:2]; Pro(3S-OH,4S-Me) = C[C@H]1CN[C@H](C(=O)O)[C@H]1O; X1 = CCCCCOc1ccc(-c2cc(-c3ccc(C(=O)*)cc3)no2)cc1; Gln(3R-OH) = NC(=O)C[C@@H](O)[C@H](N)C(=O)O; Hyp = O=C(O)[C@@H]1C[C@@H](O)CN1

These solved cases illustrate the format of a correct answer.
The recorded MIC 24 hr for `C[C@@H](c1ncncc1F)[C@](O)(Cn1cncn1)c1ccc(F)cc1F` is > 64 µg/mL

GET /value?item= CCCCCOc1ccc(-c2cc(-c3ccc(C(=O)N[C@H]4C[C@@H](O)[C@@H](O)NC(=O)[C@@H]5[C@@H](O)[C@@H](C)CN5C(=O)[C@H]([C@H](O)CC(N)=O)NC(=O)[C@H]([C@H](O)[C@@H](O)c5ccc(O)c(OS(=O)(=O)O)c5)NC(=O)[C@@H]5C[C@@H](O)CN5C(=O)[C@H]([C@@H](C)O)NC4=O)cc3)no2)cc1 [Micafungin] (X1-[Orn(4R-OH,5R-OH)]T[Hyp][hTyr(3S-OH,4S-OH,3'-OSO3H)][Gln(3R-OH)][Pro(3S-OH,4S-Me)]; lactam 1-C) &field=MIC 24 hr returns > 64 µg/mL

Reported MIC 24 hr of `C[C@@H]1[C@H](O)[C@@H](C)/C=C/C=C/C=C/C=C/C=C/C=C/C=C/[C@H](O[C@@H]2O[C@H](C)[C@@H](O)[C@H](N)[C@@H]2O)C[C@@H]2O[C@](O)(C[C@@H](O)C[C@@H](O)[C@H](O)CC[C@@H](O)C[C@@H](O)CC(=O)O[C@H]1C)C[C@H](O)[C@H]2C(=O)O` : > 64 µg/mL

Notebook: `CC[C@H](C)C[C@H](C)CCCCCCCCC(=O)N[C@H]1C[C@@H](O)[C@@H](NCCN)NC(=O)[C@@H]2[C@@H](O)CCN2C(=O)[C@H]([C@H](O)CCN)NC(=O)[C@H]([C@H](O)[C@@H](O)c2ccc(O)cc2)NC(=O)[C@@H]2C[C@@H](O)CN2C(=O)[C@H]([C@@H](C)O)NC1=O` , MIC 24 hr read as > 64 µg/mL

Form field MIC 24 hr, entry CC(S)C(C)S.[Bi] (stereo not drawn) : 0.5^a

Now take the following compound into account.
The reported MIC 24 hr of the compound OC(Cn1cncn1)(Cn1cncn1)c1ccc(F)cc1F [fluconazole, reference compound] was > 64 µg/mL
